The reported numbers originate from patent US20250027068.

// reported Enzyme Activity Endpoint Assay (purified): IgG per item
Molecular target: pooled human IgG
Readout type: Enzyme Activity Endpoint Assay (purified): IgG (ng/µL)

INSERT INTO measurements (protein, unit_label, result_value) VALUES
  ('PRT-67 (protein) MANQEIRYSEVTPYHVTSVWTKGVTPPANFTQGEDVFHAPYVANQGWYDINKTFNGKDDLLCGAATAGNMLHWWFDQNKDQIKRYLEEHPEKQKINFNGEQMFDVKEAIDTKNHQLDSKLFEYFKEKAFPYLSTKHLGVFPDHVIDMFINGYRLSLTNHGPTPVKEGSKDPRGGIFDAVFTRGDQSKLLTSRHDFKEKNLKEISDLIKKELTEGKALGLSHTYANVRINHVINLWGADFDSNGNLKAIYVTDSDSNASIGMKKYFVGVNSAGKVAISAKEIKEDNIGAQVLGLFTLSTGQDSWNQTN', 'ng/µL', 23),
  ('PRT-159 (protein) MANQEIRYSEVTPYHVTSVWTKGVTPPTDFIKGEDVFHAPYKAGQGWYDITKTFNGKDDLLCGAATAGNMLHWWFDQNKDQIKRYLEEHPEKQKINFNGEQMFDVKEAIDTKNHQLDSKLFEYFKEKAFPYLSTKHLGVFPDHVIDMFINGYRLSLTNHGPTPVKEGSKDPRGGIFDAVFTRGDQSKLLTSRHDFKEKNLKEISDLIKKELQEGKALGLSHTYANVRINHVINLWGADFDSNGNLKAIYVTDSDSNASIGMKKYFVGVNSAGKVAISAKEIKEDNIGAQVLGLFTLSTGQDSWNQTN', 'ng/µL', 0),
  ('Ide85 (protein) MANQEIRYSEVTPYHVTSVWTKGVTPPAKFTQGEDVFHAPYVANQGWYDITKTFNGKDDLLCGAATAGNMLHWWFDQNKEKIEAYLKKHPDKQKIMFGDQELLDVRKVINTKGDQTNSELFNYFRDKAFPGLSARRIGVMPDLVLDMFINGYYLNVYKTQTTDVNRTYQEKDRRGGIFDAVFTRGDQSKLLTSRHDFKEKNLKEISDLIKKELTEGKALGLSHTYANVRINHVINLWGADFDSNGNLKAIYVTDSDSNASIGMKKYFVGVNSAGKVAISAKEIKEDNIGAQVLGLFTLSTGQDSWNQTN', 'ng/µL', 0),
  ('PRT-61 (protein) MANQEIRYSEVTPYHVTSVWTKGVTPPANFTQGEDVFHAPYVANQGWYDINKTFNGKDDLLCGAATAGNMLHWWFDQNKEYIKRYLEEHPEKQKINFNGEQMFDVKEAIDTKNHQLDSKLFEYFKEKAFPYLSTKHLGVFPDHVLDMFINGYRLSLTNHGPTPVKEGSKDPRGGIFDAVFTRGDQSKLLTSRHDFKEKNLKEISDLIKKELTEGKALGLSHTYANVRINHVINLWGADFDSNGNLKAIYVTDSDSNASVGMKKYFVGVNSAGKVAISAKEIKEDNIGAQVLGLFTLSTGQDSWNQTN', 'ng/µL', 52),
  ('PRT-606 (protein) MQITSVWTKGVTPLTPEQFRYNNEDVIHAPYLAHQGWYDITKAFDGKDNLLCGAATAGNMLHWWFDQNKTEIEAYLSKYPDKQKIIFNNQELFDLKAAIDTKDSQTNSQLFNYFRDKAFPNLSARQLGVMPDLVLDMFINGYYLNVFKTQSTDVNRPYQDKDKRGGIFDAVFTRGDQTTLLTARHDLKNKGLNDISTIIKQELTEGRALALSHTYANVSISHVINLWGADFNAEGNLEAIYVTDSDANASIGMKKYFVGINAHGHVAISAKKIEGENIGAQVLGLFTLSSGKEIWQKLSLEHHHHHH', 'ng/µL', 0),
  ('PRT-148 (protein) MANQEIRYSEVTPYHVTSVWTKGVTPPANFTQGEDVFHAPYVANQGWYDITKTFNGKDDLLCGAATAGNMLHWWFDQNKDQIKRYLEEHPEKQKINFNGEQMFDVKEAIDTKNHQLDSKLFEYFKEKAFPYLSTKHLGVFPDHVIDMFINGYRLSLTNHGPTPVKRQSKDPRGGIFDAVFTRGDQSKLLTSRHDFKEKNLKEISDLIKKELTEGKALGLSHTYANVRINHVINLWGADFDSNGNLKAIYVTDSDSNASIGMKKYFVGVNSAGKVAISAKEIKEDNIGAQVLGLFTLSTGQDSWNKTN', 'ng/µL', 0),
  ('PRT-140 (protein) MRNATEAYAKEVPHQITSVWTKGVTPLTPEQFRYNNEDVIHAPYLAHQGWYDITKAFNGKDNLLCGAATAGNMLHWWFDQNKTEIEAYLSKHPEKQKIIFNNQELFDLKAAIDTKDSQTNSQLFNYFRDKAFPNLSARQLGVMPDLVLDMFINGYYLNVFKTQSTDVNRPYQDKDKRGGIFDAVFTRGDQTTLLTARHDLKNKGLNDISTIIKQELTEGRALALSHTYANVSISHVINLWGADFNAEGNLEAIYVTDSDANASIGMKKYFVGINAHGHVAISAKKIEGENIGAQVLGLFTLSSGKDIWQKLS', 'ng/µL', 0),
  ('PRT-116 (protein) MRNATEAYNKATPTTITSVWTKGVTPPTPEQFRYNNEDVFHAPYKAHQGWYDITKTFNGKDNLLCGAATAGNMLHWWFDQNKTEIEAYLSKHPEKQKIIFNNQELFDLKAAIDTKDSQTNSQLFNYFRDKAFPNLSARQLGVMPDLVLDMFINGYYLNVFKTQSTDVNRPYQDKDKRGGIFDAVFTRGDQTKLLTARHDLKDKGLNEISDLIKQELTEGKALALSHTYANVRISHVINLWGADFNAEGNLEAIYVTDSDANASIGMKKYFVGVNSSGHVAISAKKIEGENIGAQVLGLFTLSSGKDIWQKLS', 'ng/µL', 0);
